# Test system: EGFR(L747-T751del,Sins)
# methodDescription: KINOMEscan ScanTK
# Format: binding
# recordedConditions: @1000nM
measurementType: % difference (compound - Ib %Control) (%)

- Cc1cnc(S(C)(=O)=O)nc1N1CCCC(n2nc(-c3ccc(Oc4ccccc4)cc3)c3c(N)ncnc32)C1 (stereo not shown) [Compound 8a]: 67.4
- COC(=O)c1cnc(S(C)(=O)=O)nc1N1CCCC(n2nc(-c3ccc(Oc4ccccc4)cc3)c3c(N)ncnc32)C1 (stereo not shown) [Compound 8b]: 62.4
- CCOC(=O)c1cnc(S(C)(=O)=O)nc1N1CCC[C@@H](n2nc(-c3ccc(Oc4ccccc4)cc3)c3c(N)ncnc32)C1 [Compound 8c]: 71.4
- CNC(=O)c1cnc(S(C)(=O)=O)nc1N1CCCC(n2nc(-c3ccc(Oc4ccccc4)cc3)c3c(N)ncnc32)C1 (stereo not shown) [Compound 8d]: 27.4

----------
# targetEntity: EPHB2 (Homo sapiens)
# Construct: purchased Eurofins DiscoverX KINOMEscan (scanTK)
# Sequence (P29323 19-1055): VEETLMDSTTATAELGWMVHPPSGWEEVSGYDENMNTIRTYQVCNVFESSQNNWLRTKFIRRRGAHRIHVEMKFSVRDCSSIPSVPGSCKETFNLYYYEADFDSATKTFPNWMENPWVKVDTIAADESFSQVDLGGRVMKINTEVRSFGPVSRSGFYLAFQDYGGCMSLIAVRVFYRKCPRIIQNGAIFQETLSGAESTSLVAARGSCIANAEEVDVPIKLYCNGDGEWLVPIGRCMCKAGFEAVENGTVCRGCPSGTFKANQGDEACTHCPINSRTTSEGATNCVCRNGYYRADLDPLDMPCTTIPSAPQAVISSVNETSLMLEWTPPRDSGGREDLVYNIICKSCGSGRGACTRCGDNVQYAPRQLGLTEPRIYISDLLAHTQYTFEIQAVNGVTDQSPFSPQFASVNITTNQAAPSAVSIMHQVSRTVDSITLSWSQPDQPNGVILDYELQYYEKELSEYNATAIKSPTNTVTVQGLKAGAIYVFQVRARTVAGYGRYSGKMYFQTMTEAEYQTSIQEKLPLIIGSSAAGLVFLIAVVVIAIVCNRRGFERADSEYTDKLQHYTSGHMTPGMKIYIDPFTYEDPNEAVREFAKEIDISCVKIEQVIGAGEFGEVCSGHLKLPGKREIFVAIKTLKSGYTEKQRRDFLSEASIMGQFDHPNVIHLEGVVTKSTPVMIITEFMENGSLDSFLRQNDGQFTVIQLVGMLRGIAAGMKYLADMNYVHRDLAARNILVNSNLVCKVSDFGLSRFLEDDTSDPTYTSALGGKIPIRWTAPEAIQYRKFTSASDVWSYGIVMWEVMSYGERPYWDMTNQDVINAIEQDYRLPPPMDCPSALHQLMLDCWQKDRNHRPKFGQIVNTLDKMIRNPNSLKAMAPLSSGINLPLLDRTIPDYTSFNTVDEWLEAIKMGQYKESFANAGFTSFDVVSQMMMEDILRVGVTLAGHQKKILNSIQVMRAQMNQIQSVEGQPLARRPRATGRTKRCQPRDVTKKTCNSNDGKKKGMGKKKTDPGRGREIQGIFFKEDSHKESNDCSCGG
# methodDescription: KINOMEscan ScanTK
# Assay type: binding
# recordedConditions: @1000nM
The following compounds are listed with their measured %Control difference from compound Ib at 1 µM values.
measurementType: %Control difference from compound Ib at 1 µM (%)

- COC(=O)c1cnc(S(C)(=O)=O)nc1N1CCCC(n2nc(-c3ccc(Oc4ccccc4)cc3)c3c(N)ncnc32)C1 (stereo not shown): -9
- CCOC(=O)c1cnc(S(C)(=O)=O)nc1N1CCC[C@@H](n2nc(-c3ccc(Oc4ccccc4)cc3)c3c(N)ncnc32)C1: -2
- Cc1cnc(S(C)(=O)=O)nc1N1CCCC(n2nc(-c3ccc(Oc4ccccc4)cc3)c3c(N)ncnc32)C1 (stereo not shown): -16
- CNC(=O)c1cnc(S(C)(=O)=O)nc1N1CCCC(n2nc(-c3ccc(Oc4ccccc4)cc3)c3c(N)ncnc32)C1 (stereo not shown): -1

----------
# targetEntity: ERBB4 (Homo sapiens)
# Construct: purchased Eurofins DiscoverX KINOMEscan (scanTK)
# Sequence (Q15303 26-1308): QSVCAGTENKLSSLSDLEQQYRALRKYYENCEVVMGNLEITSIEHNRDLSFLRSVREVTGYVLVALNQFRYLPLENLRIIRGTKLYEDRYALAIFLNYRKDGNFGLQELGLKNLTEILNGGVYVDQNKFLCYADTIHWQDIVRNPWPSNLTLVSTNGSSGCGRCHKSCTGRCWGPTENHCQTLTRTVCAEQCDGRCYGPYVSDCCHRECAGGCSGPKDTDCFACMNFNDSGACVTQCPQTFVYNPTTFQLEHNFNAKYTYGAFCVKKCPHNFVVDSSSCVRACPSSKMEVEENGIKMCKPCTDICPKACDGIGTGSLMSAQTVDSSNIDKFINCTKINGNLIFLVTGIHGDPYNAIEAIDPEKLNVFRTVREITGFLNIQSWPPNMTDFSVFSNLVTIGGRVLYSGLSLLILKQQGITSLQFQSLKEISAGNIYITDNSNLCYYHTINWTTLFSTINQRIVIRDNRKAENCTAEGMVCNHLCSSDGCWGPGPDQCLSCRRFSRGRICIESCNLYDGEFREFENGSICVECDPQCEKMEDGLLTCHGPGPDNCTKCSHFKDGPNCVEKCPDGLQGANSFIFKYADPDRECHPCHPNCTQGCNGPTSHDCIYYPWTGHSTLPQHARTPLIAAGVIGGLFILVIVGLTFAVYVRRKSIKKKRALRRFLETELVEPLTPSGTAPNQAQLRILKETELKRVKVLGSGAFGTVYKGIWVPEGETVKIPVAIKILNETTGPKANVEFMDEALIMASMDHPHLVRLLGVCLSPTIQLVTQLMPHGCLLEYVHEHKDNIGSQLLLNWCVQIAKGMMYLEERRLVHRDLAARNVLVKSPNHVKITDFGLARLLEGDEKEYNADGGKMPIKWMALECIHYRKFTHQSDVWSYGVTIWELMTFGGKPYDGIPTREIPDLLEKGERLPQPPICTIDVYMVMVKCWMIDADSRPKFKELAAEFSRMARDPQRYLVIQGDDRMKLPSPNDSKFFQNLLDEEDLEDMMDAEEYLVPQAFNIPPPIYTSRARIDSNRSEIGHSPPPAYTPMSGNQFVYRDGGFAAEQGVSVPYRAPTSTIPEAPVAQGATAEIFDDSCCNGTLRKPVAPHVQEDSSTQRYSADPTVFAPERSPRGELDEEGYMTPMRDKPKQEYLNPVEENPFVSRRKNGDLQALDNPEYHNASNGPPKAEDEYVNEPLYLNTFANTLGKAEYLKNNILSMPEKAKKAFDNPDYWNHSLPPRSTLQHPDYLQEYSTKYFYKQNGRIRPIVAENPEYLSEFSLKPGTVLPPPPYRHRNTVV
# methodDescription: KINOMEscan ScanTK
# Type: binding
# recordedConditions: read-out: %Control @1000nM
remaining binding at 1 µM less than 0.6% is Criterion met; remaining binding at 1 µM greater than or equal to 0.6% is Criterion not met.

* Cc1cnc(S(C)(=O)=O)nc1N1CCCC(n2nc(-c3ccc(Oc4ccccc4)cc3)c3c(N)ncnc32)C1 (centres unmarked) | Criterion not met
* CNC(=O)c1cnc(S(C)(=O)=O)nc1N1CCCC(n2nc(-c3ccc(Oc4ccccc4)cc3)c3c(N)ncnc32)C1 (centres unmarked) | Criterion met
* COC(=O)c1cnc(S(C)(=O)=O)nc1N1CCCC(n2nc(-c3ccc(Oc4ccccc4)cc3)c3c(N)ncnc32)C1 (centres unmarked) | Criterion met
* CCOC(=O)c1cnc(S(C)(=O)=O)nc1N1CCC[C@@H](n2nc(-c3ccc(Oc4ccccc4)cc3)c3c(N)ncnc32)C1 | Criterion not met
* C=CC(=O)N1CCC[C@@H](n2nc(-c3ccc(Oc4ccccc4)cc3)c3c(N)ncnc32)C1 [Compound 1g, Ibrutinib, reference compound] | Criterion met

----------
# targetEntity: FLT3-autoinhibited (Homo sapiens)
# Construct: purchased Eurofins DiscoverX KINOMEscan (scanTK)
# Sequence (P36888 27-993): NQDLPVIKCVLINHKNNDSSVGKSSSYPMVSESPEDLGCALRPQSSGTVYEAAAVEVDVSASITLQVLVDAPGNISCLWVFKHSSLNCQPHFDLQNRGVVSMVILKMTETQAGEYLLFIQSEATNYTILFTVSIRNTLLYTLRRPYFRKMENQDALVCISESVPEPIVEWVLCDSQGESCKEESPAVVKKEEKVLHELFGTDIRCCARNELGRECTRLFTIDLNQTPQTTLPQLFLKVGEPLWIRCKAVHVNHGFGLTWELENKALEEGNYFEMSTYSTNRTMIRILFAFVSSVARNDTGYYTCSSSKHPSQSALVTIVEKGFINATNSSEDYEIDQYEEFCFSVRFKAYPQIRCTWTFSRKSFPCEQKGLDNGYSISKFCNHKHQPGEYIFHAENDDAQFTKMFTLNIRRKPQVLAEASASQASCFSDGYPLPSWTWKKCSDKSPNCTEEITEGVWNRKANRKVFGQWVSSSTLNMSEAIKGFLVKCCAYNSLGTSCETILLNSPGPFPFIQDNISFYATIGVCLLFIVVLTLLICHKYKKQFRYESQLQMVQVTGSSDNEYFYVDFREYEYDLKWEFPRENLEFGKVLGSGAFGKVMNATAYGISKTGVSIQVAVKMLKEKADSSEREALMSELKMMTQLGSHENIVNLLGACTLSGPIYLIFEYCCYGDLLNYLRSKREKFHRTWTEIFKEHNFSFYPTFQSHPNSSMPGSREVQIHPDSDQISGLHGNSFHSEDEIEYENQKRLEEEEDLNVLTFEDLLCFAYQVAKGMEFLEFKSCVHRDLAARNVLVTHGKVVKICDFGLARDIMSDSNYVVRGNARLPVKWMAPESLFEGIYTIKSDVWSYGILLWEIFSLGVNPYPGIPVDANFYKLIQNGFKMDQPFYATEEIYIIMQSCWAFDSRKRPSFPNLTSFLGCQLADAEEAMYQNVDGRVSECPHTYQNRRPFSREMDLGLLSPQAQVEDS
# methodDescription: KINOMEscan ScanTK
# Type: binding
# recordedConditions: @1000nM, read-out: %Control
measurementType: remaining binding at 1 µM

- CCOC(=O)c1cnc(S(C)(=O)=O)nc1N1CCC[C@@H](n2nc(-c3ccc(Oc4ccccc4)cc3)c3c(N)ncnc32)C1: 100%
- Cc1cnc(S(C)(=O)=O)nc1N1CCCC(n2nc(-c3ccc(Oc4ccccc4)cc3)c3c(N)ncnc32)C1 (stereo not shown): 79%
- CNC(=O)c1cnc(S(C)(=O)=O)nc1N1CCCC(n2nc(-c3ccc(Oc4ccccc4)cc3)c3c(N)ncnc32)C1 (stereo not shown): 100%
- COC(=O)c1cnc(S(C)(=O)=O)nc1N1CCCC(n2nc(-c3ccc(Oc4ccccc4)cc3)c3c(N)ncnc32)C1 (stereo not shown): 90%

----------
# targetEntity: EPHA1 (Homo sapiens, UniProt P21709)
# Construct: purchased Eurofins DiscoverX KINOMEscan (scanTK)
# Sequence (P21709 26-976): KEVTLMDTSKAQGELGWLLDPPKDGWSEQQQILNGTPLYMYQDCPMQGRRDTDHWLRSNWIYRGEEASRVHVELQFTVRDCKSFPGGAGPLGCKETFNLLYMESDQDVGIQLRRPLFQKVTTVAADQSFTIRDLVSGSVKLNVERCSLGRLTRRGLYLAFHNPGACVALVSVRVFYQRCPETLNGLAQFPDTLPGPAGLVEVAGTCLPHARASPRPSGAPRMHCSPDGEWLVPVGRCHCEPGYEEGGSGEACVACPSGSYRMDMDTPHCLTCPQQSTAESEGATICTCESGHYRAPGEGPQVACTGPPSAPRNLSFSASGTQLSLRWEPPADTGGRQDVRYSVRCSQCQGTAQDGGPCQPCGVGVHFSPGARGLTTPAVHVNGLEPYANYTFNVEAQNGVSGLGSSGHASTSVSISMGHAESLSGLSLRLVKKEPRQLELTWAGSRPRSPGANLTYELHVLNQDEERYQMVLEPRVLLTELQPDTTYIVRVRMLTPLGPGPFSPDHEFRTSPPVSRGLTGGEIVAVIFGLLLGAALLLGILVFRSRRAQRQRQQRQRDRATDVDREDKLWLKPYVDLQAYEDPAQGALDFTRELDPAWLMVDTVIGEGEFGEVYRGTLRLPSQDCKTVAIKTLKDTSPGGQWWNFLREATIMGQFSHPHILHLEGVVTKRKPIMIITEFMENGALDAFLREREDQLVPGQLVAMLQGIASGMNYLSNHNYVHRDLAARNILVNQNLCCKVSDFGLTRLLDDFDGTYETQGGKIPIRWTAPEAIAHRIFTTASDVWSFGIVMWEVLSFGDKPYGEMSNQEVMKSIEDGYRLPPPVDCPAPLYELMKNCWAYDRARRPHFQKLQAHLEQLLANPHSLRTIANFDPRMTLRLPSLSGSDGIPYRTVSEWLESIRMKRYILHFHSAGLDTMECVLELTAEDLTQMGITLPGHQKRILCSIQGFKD
# methodDescription: KINOMEscan ScanTK
# Type: binding
# recordedConditions: read-out: %Control @1000nM
The following compounds are listed with their measured remaining binding at 1 µM values.
measurementType: remaining binding at 1 µM

• CCOC(=O)c1cnc(S(C)(=O)=O)nc1N1CCC[C@@H](n2nc(-c3ccc(Oc4ccccc4)cc3)c3c(N)ncnc32)C1 = 92%
• CNC(=O)c1cnc(S(C)(=O)=O)nc1N1CCCC(n2nc(-c3ccc(Oc4ccccc4)cc3)c3c(N)ncnc32)C1 (centres unmarked) = 66%
• COC(=O)c1cnc(S(C)(=O)=O)nc1N1CCCC(n2nc(-c3ccc(Oc4ccccc4)cc3)c3c(N)ncnc32)C1 (centres unmarked) = 56%
• C=CC(=O)N1CCC[C@@H](n2nc(-c3ccc(Oc4ccccc4)cc3)c3c(N)ncnc32)C1 [Compound 1g, Ibrutinib, reference compound] = 72%
• Cc1cnc(S(C)(=O)=O)nc1N1CCCC(n2nc(-c3ccc(Oc4ccccc4)cc3)c3c(N)ncnc32)C1 (centres unmarked) = 81%

----------
# targetEntity: FGR (Homo sapiens)
# Construct: purchased Eurofins DiscoverX KINOMEscan (scanTK)
# Sequence (P09769 whole entry): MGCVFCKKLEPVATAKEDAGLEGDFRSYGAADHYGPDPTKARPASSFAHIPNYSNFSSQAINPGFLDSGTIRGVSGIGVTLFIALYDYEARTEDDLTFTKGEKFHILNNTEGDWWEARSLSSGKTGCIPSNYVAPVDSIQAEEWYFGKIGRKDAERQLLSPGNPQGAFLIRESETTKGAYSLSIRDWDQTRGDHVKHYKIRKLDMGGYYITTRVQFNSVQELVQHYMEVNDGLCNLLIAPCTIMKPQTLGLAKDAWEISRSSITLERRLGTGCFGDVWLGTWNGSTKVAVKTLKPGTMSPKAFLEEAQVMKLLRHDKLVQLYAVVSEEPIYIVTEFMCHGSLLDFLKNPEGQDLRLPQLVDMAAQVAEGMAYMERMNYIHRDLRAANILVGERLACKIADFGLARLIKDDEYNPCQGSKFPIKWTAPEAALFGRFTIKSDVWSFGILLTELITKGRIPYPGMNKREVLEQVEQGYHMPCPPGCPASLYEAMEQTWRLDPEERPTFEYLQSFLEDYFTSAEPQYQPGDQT
# methodDescription: KINOMEscan ScanTK
# Type: binding
# recordedConditions: @1000nM, read-out: %Control
measurementType: remaining binding at 1 µM (%)

* CCOC(=O)c1cnc(S(C)(=O)=O)nc1N1CCC[C@@H](n2nc(-c3ccc(Oc4ccccc4)cc3)c3c(N)ncnc32)C1 [Compound 8c] | 19
* COC(=O)c1cnc(S(C)(=O)=O)nc1N1CCCC(n2nc(-c3ccc(Oc4ccccc4)cc3)c3c(N)ncnc32)C1 (stereo not shown) [Compound 8b] | 26
* Cc1cnc(S(C)(=O)=O)nc1N1CCCC(n2nc(-c3ccc(Oc4ccccc4)cc3)c3c(N)ncnc32)C1 (stereo not shown) [Compound 8a] | 8.6
* CNC(=O)c1cnc(S(C)(=O)=O)nc1N1CCCC(n2nc(-c3ccc(Oc4ccccc4)cc3)c3c(N)ncnc32)C1 (stereo not shown) [Compound 8d] | 16

----------
The following molecules are listed with their measured remaining binding at 1 µM values.
# targetEntity: JAK1(JH2domain-pseudokinase) (Homo sapiens)
# Construct: JAK1(JH2domain-pseudokinase); purchased Eurofins DiscoverX KINOMEscan (scanTK)
# Sequence (P23458 583-855 limits assumed): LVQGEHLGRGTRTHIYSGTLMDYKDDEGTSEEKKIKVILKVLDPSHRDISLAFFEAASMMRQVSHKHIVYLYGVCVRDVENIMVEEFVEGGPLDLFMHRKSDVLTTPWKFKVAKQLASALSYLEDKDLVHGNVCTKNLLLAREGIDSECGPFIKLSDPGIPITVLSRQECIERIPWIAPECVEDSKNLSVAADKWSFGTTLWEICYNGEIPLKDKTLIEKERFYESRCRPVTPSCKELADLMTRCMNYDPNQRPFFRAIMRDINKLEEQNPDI
# methodDescription: KINOMEscan ScanTK
# Format: binding
# recordedConditions: @1000nM, read-out: %Control
measurementType: remaining binding at 1 µM

* COC(=O)c1cnc(S(C)(=O)=O)nc1N1CCCC(n2nc(-c3ccc(Oc4ccccc4)cc3)c3c(N)ncnc32)C1 (centres unmarked) | 99%
* CCOC(=O)c1cnc(S(C)(=O)=O)nc1N1CCC[C@@H](n2nc(-c3ccc(Oc4ccccc4)cc3)c3c(N)ncnc32)C1 | 99%
* C=CC(=O)N1CCC[C@@H](n2nc(-c3ccc(Oc4ccccc4)cc3)c3c(N)ncnc32)C1 [Compound 1g, Ibrutinib, reference compound] | 95%
* Cc1cnc(S(C)(=O)=O)nc1N1CCCC(n2nc(-c3ccc(Oc4ccccc4)cc3)c3c(N)ncnc32)C1 (centres unmarked) | 100%
* CNC(=O)c1cnc(S(C)(=O)=O)nc1N1CCCC(n2nc(-c3ccc(Oc4ccccc4)cc3)c3c(N)ncnc32)C1 (centres unmarked) | 100%
